biological target: T1, rat insulin receptor (INSR) on CHOK1 cells (rat, UniProt P15127 27-1383); assay: flow cytometry on CHOK1 cells expressing the INSR ortholog; Fab, anti-human kappa FITC detection
T1 construct: whole, on cells; CHOK1 cells over-expressing rat INSR; also called rat INSR ortholog
pEC50: −log10 of the molar value.
# pEC50 per entry
value-type: pEC50

| binder | value-type | numeric-result |
| --- | --- | --- |
| XPA.15.247.2.011 Fab (Fab, V domains shown, Fab; also called XPA.15.247.011) VH: EVQLVETGGGVVQPGRSLRLSCAASGFTFSSYAMHWVRQAPGKGLEWVAVISYSGSNKYYADSVKGRFTISRDNSKNTLYLQMNSLRAEDTAVYYCARHEWGFGFDYWGQGTTVTVSS VL: DVVMTQSPLSLPVTLGQPASISCRSSHSLVYGDGNTYLNWFHQRPGQSPRRLIYKVSNRDSGVPDRFAGSGSGTDFTLKISRVEADDFGVFYCMQGTHWPYTFGQGTKLEIKR | pEC50 | 8.72 |
| XPA.15.247.2.014 Fab (Fab, V domains shown, Fab; also called XPA.15.247.014) VH: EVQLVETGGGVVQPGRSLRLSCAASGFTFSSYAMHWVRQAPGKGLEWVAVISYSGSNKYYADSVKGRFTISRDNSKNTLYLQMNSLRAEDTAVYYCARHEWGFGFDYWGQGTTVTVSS VL: DVVMTQSPLSLPVTLGQPASISCRSSQSLVYGDGNTYLNWFQQRPGQSPRRLIYKVSKRDSGVPDRFSGSGSGTDFTLKISRVEAEDVGVYYCMQGTYWPMTFGGGTKLEIKR | pEC50 | 8.77 |
| XPA.15.247 Fab (Fab, V domains shown, Monomeric Fab; also called Fab247; XPA.15.247 parent Fab) VH: EVQLVETGGGVVQPGRSLRLSCAASGFTFSSYAMHWVRQAPGKGLEWVAVISYDGSNKYYADSVKGRFTISRDNSKNTLYLQMNSLRAEDTAVYYCARHEWGFGMDVWGQGTTVTVSS VL: DVVMTQSPLSLSVTLGQPASISCRSSLSLVYGDENTYLNWFQQRPGQSPRRLLYKVSDRDSGVPDRFSGSGSGTDFTLKISRVEADDVGVYYCMQGTHWPYTFGQGTKLEIKR | pEC50 | 7.93 |
| XPA.15.247.2.018 Fab (Fab, V domains shown, Monomeric Fab; also called XPA.247.2.018) VH: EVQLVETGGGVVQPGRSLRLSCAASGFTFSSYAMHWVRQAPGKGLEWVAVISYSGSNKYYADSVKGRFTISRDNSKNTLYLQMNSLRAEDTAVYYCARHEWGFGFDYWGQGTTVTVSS VL: DVVMTQSPLSLPVTLGQPASISCRSSQSLVYGDGNTYLNWFQQRPGQSPRRLIYKVSNRDSGVPDRFSGSGSGTEFTLKISRVEAEDVGVYFCMQGTYWPGTFGGGTKLEIKR | pEC50 | 8.72 |
